Test system: RARb homodimer (NR concentration 270 nM)
protocol.description: PBM binding z-score (relative to random genomic background probes); higher = stronger binding; sequences stand for … in GC…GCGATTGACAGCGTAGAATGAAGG
Use PBM binding z-score to assign classes; range list: low class (below 0.9), middle class (0.9 to below 2), high class (2 or more)

>  <ordered.residues>
CCTAGTTGGTCAGGAGGACACACACCGGATATGA

>  <label>
middle class

$$$$
>  <ordered.residues>
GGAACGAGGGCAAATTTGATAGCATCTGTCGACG

>  <label>
middle class

$$$$
>  <ordered.residues>
TCTATTAGTTGATTATGGCAACCGAAACAGCGGA

>  <label>
low class

$$$$
>  <ordered.residues>
TAGCCTAGGCCATTGGGCCAGTATAGTACGCATC

>  <label>
low class

$$$$
>  <ordered.residues>
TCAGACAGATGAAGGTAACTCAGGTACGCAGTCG

>  <label>
low class

$$$$
>  <ordered.residues>
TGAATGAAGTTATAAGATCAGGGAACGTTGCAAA

>  <label>
low class

$$$$
>  <ordered.residues>
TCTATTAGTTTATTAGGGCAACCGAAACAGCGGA

>  <label>
middle class

$$$$
>  <ordered.residues>
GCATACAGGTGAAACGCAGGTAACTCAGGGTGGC

>  <label>
low class

$$$$
>  <ordered.residues>
CTCGAAAGGTCGGTTGAGGTAAGTATACGGATAA

>  <label>
middle class

$$$$
>  <ordered.residues>
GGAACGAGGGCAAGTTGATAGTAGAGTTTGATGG

>  <label>
middle class

$$$$
>  <ordered.residues>
TCTTGTAAATCAAAGGTTAAGAAAGCCGAAGCCT

>  <label>
middle class

$$$$
>  <ordered.residues>
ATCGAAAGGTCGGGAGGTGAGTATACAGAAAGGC

>  <label>
high class

$$$$
>  <ordered.residues>
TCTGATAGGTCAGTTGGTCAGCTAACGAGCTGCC

>  <label>
high class

$$$$
>  <ordered.residues>
ATCTCTAGGTAAAAAGTTCAGTGAAAGAGAGGAC

>  <label>
high class

$$$$
>  <ordered.residues>
TATACAGGGTCAAAGGCCAGTGTACGAATGTCGA

>  <label>
high class

$$$$
>  <ordered.residues>
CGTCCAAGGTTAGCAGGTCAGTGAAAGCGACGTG

>  <label>
high class

$$$$
>  <ordered.residues>
CGTCCAAGGTCAAGGTCAGTTAAAGAGACTCGAA

>  <label>
high class

$$$$
>  <ordered.residues>
GGAACGAGGGCAAAGTTGTTAGCATCTGTCGACG

>  <label>
middle class

$$$$
>  <ordered.residues>
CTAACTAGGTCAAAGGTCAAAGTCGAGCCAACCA

>  <label>
high class

$$$$
>  <ordered.residues>
CAAACTAGGTCAAGAAAGGTCAAAGTCGAATGAC

>  <label>
high class

$$$$
>  <ordered.residues>
TCTTGTAGATCAATAGAGATTAAGAAAGTGCGCT

>  <label>
low class

$$$$
>  <ordered.residues>
TGAATGAGGTTCTAAGATCAGGGAACGTTGCAAA

>  <label>
low class

$$$$
>  <ordered.residues>
AGAATGAGGCTATTAAGATCAGGGAATTGCGGTC

>  <label>
low class

$$$$
>  <ordered.residues>
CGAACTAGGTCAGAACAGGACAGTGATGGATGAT

>  <label>
high class

$$$$

====

Test system: LXRb homodimer (NR concentration 270 nM)
protocol.description: PBM binding z-score (relative to random genomic background probes); higher = stronger binding; sequences stand for … in GC…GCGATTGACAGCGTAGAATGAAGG

>  <ordered.residues>
CGTCCAAGGTCAATGCTAGGTCAATGAAAGCATT

>  <system.under.test>
LXRb homodimer (NR concentration 270 nM)

>  <PBM binding z-score>
1.53

$$$$
>  <ordered.residues>
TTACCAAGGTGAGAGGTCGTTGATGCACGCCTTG

>  <system.under.test>
LXRb homodimer (NR concentration 270 nM)

>  <PBM binding z-score>
-0.758

$$$$
>  <ordered.residues>
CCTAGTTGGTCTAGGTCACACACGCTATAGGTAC

>  <system.under.test>
LXRb homodimer (NR concentration 270 nM)

>  <PBM binding z-score>
0.465

$$$$
>  <ordered.residues>
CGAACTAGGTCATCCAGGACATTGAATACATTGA

>  <system.under.test>
LXRb homodimer (NR concentration 270 nM)

>  <PBM binding z-score>
0.159

$$$$
>  <ordered.residues>
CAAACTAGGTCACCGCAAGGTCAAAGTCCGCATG

>  <system.under.test>
LXRb homodimer (NR concentration 270 nM)

>  <PBM binding z-score>
1.37

$$$$
>  <ordered.residues>
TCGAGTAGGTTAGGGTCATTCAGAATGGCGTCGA

>  <system.under.test>
LXRb homodimer (NR concentration 270 nM)

>  <PBM binding z-score>
-0.146

$$$$

====

System: PPARg:RXRa 90nM:30nM, anti-RXR (NR concentration 90 nM, RXRa partner concentration 30 nM)
protocol.description: PBM binding z-score (relative to random genomic background probes); higher = stronger binding; sequences stand for … in GC…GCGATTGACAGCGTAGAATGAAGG

>  <ordered.residues>
GCTCGGAGGAAAAGGTCAGAGCTTTGTCCGTAGA

>  <PBM binding z-score>
4.22

$$$$
>  <ordered.residues>
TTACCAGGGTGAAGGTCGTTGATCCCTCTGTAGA

>  <PBM binding z-score>
6.33

$$$$
>  <ordered.residues>
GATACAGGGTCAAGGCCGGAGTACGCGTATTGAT

>  <PBM binding z-score>
3.85

$$$$
>  <ordered.residues>
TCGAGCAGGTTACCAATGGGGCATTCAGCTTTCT

>  <PBM binding z-score>
0.322

$$$$
>  <ordered.residues>
ATATGTAGGTTAAGGGGCATTCAGGTTGGTTCGC

>  <PBM binding z-score>
9.63

$$$$
>  <ordered.residues>
AGAATGAGGTTATGAAGATCAGGGAATTGCGGTC

>  <PBM binding z-score>
1.61

$$$$
>  <ordered.residues>
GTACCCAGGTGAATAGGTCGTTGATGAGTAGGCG

>  <PBM binding z-score>
0.972

$$$$
>  <ordered.residues>
CCGACTGAGGCAGAAAGGTTACCATACCATCCGG

>  <PBM binding z-score>
0.899

$$$$
>  <ordered.residues>
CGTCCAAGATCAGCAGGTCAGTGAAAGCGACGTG

>  <PBM binding z-score>
-0.405

$$$$
>  <ordered.residues>
TAGCCTAGGTCATGGGCCAGTATGCCACGCGAAC

>  <PBM binding z-score>
2.81

$$$$
>  <ordered.residues>
TCTTGTAGATCAAGCAGGTTAAGGAAGCCTGAGT

>  <PBM binding z-score>
1.8

$$$$
>  <ordered.residues>
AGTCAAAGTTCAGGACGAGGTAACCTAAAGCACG

>  <PBM binding z-score>
3.75

$$$$
>  <ordered.residues>
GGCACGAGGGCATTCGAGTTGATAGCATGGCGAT

>  <PBM binding z-score>
-0.229

$$$$
>  <ordered.residues>
CGAACGAGGGCATGAGTTGTTAGCAAATGCCGAT

>  <PBM binding z-score>
0.425

$$$$
>  <ordered.residues>
CGTCAAAGTTCAAGGTAACGTCACAGAAAGCAGC

>  <PBM binding z-score>
4.03

$$$$
>  <ordered.residues>
CGTAAAAGTTCAACTAAGGTAACGTAAAGCACGC

>  <PBM binding z-score>
2.58

$$$$
>  <ordered.residues>
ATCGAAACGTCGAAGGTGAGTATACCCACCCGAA

>  <PBM binding z-score>
-0.0142

$$$$
>  <ordered.residues>
ATATGTAGGTTACATCCGGGTCATTCATGCTATG

>  <PBM binding z-score>
4.45

$$$$
>  <ordered.residues>
TCTATTAGTTGATTAGGGCAAACGAAACAGCGGA

>  <PBM binding z-score>
2.29

$$$$
>  <ordered.residues>
CCGACTGGGGCAGAAAGGTTACCATACCATCCGG

>  <PBM binding z-score>
2.03

$$$$
>  <ordered.residues>
ACTAGCATGCCAAGGGTCACTCAAGATTAGTCCG

>  <PBM binding z-score>
6.39

$$$$
>  <ordered.residues>
CGTCAAAGTTCAACCAAGGTAACGTAAAGCACGC

>  <PBM binding z-score>
4.77

$$$$
>  <ordered.residues>
CAAACTAGGTCACGAAACGTCAAAGTCGAATGAC

>  <PBM binding z-score>
7.36

$$$$
>  <ordered.residues>
CAAACTAGGTCAAGGTCACAGTCGGTTTGTGCCA

>  <PBM binding z-score>
8.13

$$$$
>  <ordered.residues>
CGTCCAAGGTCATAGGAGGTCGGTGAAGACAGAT

>  <PBM binding z-score>
3.35

$$$$
>  <ordered.residues>
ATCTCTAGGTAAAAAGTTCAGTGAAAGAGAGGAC

>  <PBM binding z-score>
3.68

$$$$
>  <ordered.residues>
TGTCAAAGTTCAAAGGTATCGTAAGTATCCACAC

>  <PBM binding z-score>
6.44

$$$$
>  <ordered.residues>
GCTCGGAGGACAATGTCAGAGCTTTGTCCGTAGA

>  <PBM binding z-score>
-1.01

$$$$
>  <ordered.residues>
AATCCAGGGTCATCGTAGGCCAGAGTACGCACAG

>  <PBM binding z-score>
4.59

$$$$
>  <ordered.residues>
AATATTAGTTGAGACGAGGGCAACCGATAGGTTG

>  <PBM binding z-score>
0.408

$$$$
>  <ordered.residues>
ACTATTAGTTCAGACGAGGGCAACCGATAGGTTG

>  <PBM binding z-score>
0.00845

$$$$
>  <ordered.residues>
CCTACTGGGCGAAAGGTCATTGATTCCAATGCTC

>  <PBM binding z-score>
11.6

$$$$
>  <ordered.residues>
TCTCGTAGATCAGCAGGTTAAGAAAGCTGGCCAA

>  <PBM binding z-score>
2.08

$$$$
>  <ordered.residues>
CAAACTAGGTAAAGAGGTCAAAGTCCGCTTCCCG

>  <PBM binding z-score>
7.2

$$$$
>  <ordered.residues>
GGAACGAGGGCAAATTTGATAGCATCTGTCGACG

>  <PBM binding z-score>
0.82

$$$$
>  <ordered.residues>
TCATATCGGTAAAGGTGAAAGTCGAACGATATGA

>  <PBM binding z-score>
3.48

$$$$
>  <ordered.residues>
ACTCGGAGGACTAAGGTCAGAGCTACGCCAGTGA

>  <PBM binding z-score>
2.41

$$$$
>  <ordered.residues>
ATATGTAGGTTAGCTGGGGTCATTCTGACTAGGC

>  <PBM binding z-score>
4.48

$$$$
>  <ordered.residues>
ATCTCTAGGTAAAGAAAGTTCAGTGAATGCAAAT

>  <PBM binding z-score>
0.768

$$$$
>  <ordered.residues>
ATACCAACGTGATCGTGAGGTCGTTGATACTAAC

>  <PBM binding z-score>
-0.163

$$$$
>  <ordered.residues>
GATACAGGGTCATGGCCAGAGTACGCGTATTGAT

>  <PBM binding z-score>
4.67

$$$$
>  <ordered.residues>
AATAGTTGGTCAGCTGAGGTCACACACAATTCGG

>  <PBM binding z-score>
1.25

$$$$
>  <ordered.residues>
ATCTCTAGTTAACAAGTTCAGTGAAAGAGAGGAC

>  <PBM binding z-score>
0.596

$$$$
>  <ordered.residues>
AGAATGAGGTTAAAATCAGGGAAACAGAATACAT

>  <PBM binding z-score>
1.7

$$$$
>  <ordered.residues>
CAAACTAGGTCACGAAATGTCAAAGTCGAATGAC

>  <PBM binding z-score>
7.61

$$$$
>  <ordered.residues>
CCTAGTTGGTCACGGTCACACACGCTATAGGTAC

>  <PBM binding z-score>
0.795

$$$$
>  <ordered.residues>
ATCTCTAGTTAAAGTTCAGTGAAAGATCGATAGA

>  <PBM binding z-score>
2.89

$$$$
>  <ordered.residues>
TAGCCTAGGTCATGGGCGAGTATACCACGCGAAC

>  <PBM binding z-score>
2.09

$$$$
>  <ordered.residues>
ATATGCAGGTTAAGGGTCATTCAGGTTGGTTCGC

>  <PBM binding z-score>
8.7

$$$$
>  <ordered.residues>
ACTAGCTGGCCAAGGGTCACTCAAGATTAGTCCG

>  <PBM binding z-score>
5.05

$$$$
>  <ordered.residues>
TAGCCTAGGTCATGCGGGCCAGTCTAGTGTCGGC

>  <PBM binding z-score>
0.877

$$$$
